Overview of recorded response vs control in vivo at 2.5 mg/kg for various molecules
Tested on: L1210 cells
Experiment: animal or person
Format: in vivo, CDF1 mice
Details: Mus musculus, L1210, ip, 1080 h, read-out: Antitumor Activity (T/C, prolongation rate of survival day), 2.5 mg/kg/day i.p., once daily for 10 days
A number alone suffices; assume %.

Here are 3 molecules together with their reported answers.
molecule | unitString | response vs control in vivo at 2.5 mg/kg
COc1cccc2c1C(=O)c1c(O)c3c(c(O)c1C2=O)C[C@@](O)(C(=O)CO)C[C@@H]3O[C@H]1C[C@H](N)[C@H](OC(C)OCCCCCC(C)C)[C@H](C)O1 (single isomer, unassigned) | % | 125
COc1cccc2c1C(=O)c1c(O)c3c(c(O)c1C2=O)C[C@@](O)(C(=O)CO)C[C@@H]3O[C@H]1C[C@H](N)[C@H](OC2CCCC(COC(C)=O)O2)[C@H](C)O1 (stereo partly shown) | % | 118
COc1cccc2c1C(=O)c1c(O)c3c(c(O)c1C2=O)C[C@@](O)(C(C)=O)C[C@@H]3O[C@H]1C[C@H](N)[C@H](OC2CCCC(OC)O2)[C@H](C)O1 (single isomer, unassigned) | % | 125

Please turn your attention to the following entry.
[in] Given COc1cccc2c1C(=O)c1c(O)c3c(c(O)c1C2=O)C[C@@](O)(C(=O)CO)C[C@@H]3O[C@H]1C[C@H](N)[C@H](OC(C)OC2CCCCC2)[C@H](C)O1 (single isomer, unassigned) , state its recorded response vs control in vivo at 2.5 mg/kg.
[out] 125
